Ref: patent US12384776B2

Please provide measured pIC50 for the entries that follow.
# measurementTarget: Nanoluciferase-BRD9 fusion protein (3×FLAG-NLuc-BRD9) in SYO-1 cells (Homo sapiens (Human))
# procedureSummary: SYO1 BRD9 NanoLuc degradation assay
# Format: cell-based
# conditionContext: SYO-1 cells expressing 3×FLAG-NLuc-BRD9, 6 hours incubation, top dose 1 μM
pIC50: −log10 of the molar value.

[ask] Recall and state the measured pIC50 for COc1cc(-c2cn(C)c(=O)c3c2CCN(C(=O)NC2CC4(CCN(CCOc5ccc6c(c5)C(=O)N(C5CCC(=O)NC5=O)C6=O)C4)C2)C3)cc(OC)c1CN(C)C (stereo not shown) .
[reply] 7.00 to 8.00

[ask] In one line, give reported pIC50 of the entry CNC(=O)N1CCc2c(-c3cc(OC)c(CN4CCC(C(=O)N5CCC6(CC5)CC(Oc5ccc7c(c5)C(=O)N(C5CCC(=O)NC5=O)C7=O)C6)CC4)c(OC)c3)cn(C)c(=O)c2C1 (stereo not shown) .
[reply] > 8.00

[ask] Give the value of pIC50 reported for the following: CNC(=O)N1CCc2c(-c3cc(OC)c(CN4CCN(c5nn(C6CCC(=O)NC6=O)c(=O)n5C)CC4)c(OC)c3)cn(C)c(=O)c2C1 (stereo not shown)
[reply] ≤ 6.00

[ask] Answer with the recorded pIC50 for the compound listed here: CNC(=O)N1CCc2c(-c3cc(OC)c(CN4CCC(CCN5CCN(c6cc7c(cc6F)C(=O)N(C6CCC(=O)NC6=O)C7=O)CC5)CC4)c(OC)c3)cn(C)c(=O)c2C1 (stereo not shown)
[reply] > 8.00

[ask] Query pIC50 for CNC(=O)N1CCc2c(-c3cc(OC)c(CN4CC(C(C)N5CCC6(CC5)CN(c5ccc7c(c5)C(=O)N(C5CCC(=O)NC5=O)C7)C6)C4)c(OC)c3)cn(C)c(=O)c2C1 (stereo not shown)
[reply] > 8.00

[ask] Quick one: give measured pIC50 for CNC(=O)N1CCc2c(-c3cc(OC)c(CN4CCC(CCN(C)C5CN(c6ccc7c(c6)C(=O)N(C6CCC(=O)NC6=O)C7=O)C5)CC4)c(OC)c3)cn(C)c(=O)c2C1 (stereo not shown)
[reply] > 8.00

[ask] Please give the documented pIC50 of COc1cc(-c2cn(C)c(=O)c3c2CCN(C(=O)NC2CC4(CCN(CCCCN5CCN(c6ccc7c(c6)C(=O)N(C6CCC(=O)NC6=O)C7=O)CC5)CC4)CO2)C3)cc(OC)c1CN(C)C (stereo not shown)
[reply] ≤ 6.00

[ask] Hello, please tell me recorded pIC50 for this one: [2H]C([2H])([2H])NC(=O)N1CCc2c(-c3cc(OC)c(CN4CCC(CN5CCC6(CC5)CC(Oc5ccc7c(c5)C(=O)N(C5CCC(=O)NC5=O)C7=O)C6)CC4)c(OC)c3)cn(C)c(=O)c2C1 (stereo not shown)
[reply] > 8.00

[ask] Provide one value: measured pIC50 of CNC(=O)N1CCc2c(-c3cc(OC)c(CN4CC(C(C)N5CCC6(CC5)CN(c5ccc7c(c5)C(=O)N(C5CCC(=O)NC5=O)C7=O)C6)C4)c(OC)c3)cn(C)c(=O)c2C1 (stereo not shown)
[reply] > 8.00

[ask] Give pIC50 for COc1cc(-c2cn(C)c(=O)c3c2CCN(C(=O)NCCCN2CC4(CCN(c5ccc6c(c5)C(=O)N(C5CCC(=O)NC5=O)C6=O)C4)C2)C3)cc(OC)c1CN(C)C (stereo not shown)
[reply] 7.00 to 8.00

====

# measurementTarget: Nanoluciferase-BRD9 fusion protein (3×FLAG-NLuc-BRD9) in SYO-1 cells (Homo sapiens (Human))
# procedureSummary: SYO1 BRD9 NanoLuc degradation assay
# Type: cell-based
# conditionContext: SYO-1 cells expressing 3×FLAG-NLuc-BRD9, 6 hours incubation, top dose 1 μM
# Method: Procedure: A stable SYO-1 cell line expressing 3×FLAG-NLuc-BRD9 was generated. On day 0 cells were seeded in 30 μL media into each well of 384-well cell culture plates. The seeding density was 8000 cells/well. […] Nanoluciferase activity was measured by adding 15 μL of freshly prepared Nano-Glo Luciferase Assay Reagent (Promega N1130), shaking the plates for 10 minutes and reading the bioluminescence using an EnVision reader. […]
So I've got a bunch of compounds here, and I need their IC50 values.

[ask] Give the reported value of IC50 for this record: COc1cc(-c2cn(C)c(=O)c3c2CCN(C(=O)NCCN2CCC4(CCN(c5ccc6c(c5)C(=O)N(C5CCC(=O)NC5=O)C6=O)C4)C2)C3)cc(OC)c1CN(C)C (stereo not shown)
[reply] 100 to 1000 nM

[ask] For the compound CNC(=O)N1CCc2c(-c3cc(OC)c(CN4[C@H](C)CN(CCC5CCN(c6ccc7c(c6)C(=O)N(C6CCC(=O)NC6=O)C7=O)CC5)C[C@@H]4C)c(OC)c3)cn(C)c(=O)c2C1 (stereo partly shown) , give its reported IC50.
[reply] < 10 nM

[ask] Give the reported IC50 for this compound. CNC(=O)N1CCc2c(-c3cc(OC)c(CN4CC(CN5CCN(c6ccc7c(c6)C(=O)N(C6CCC(=O)NC6=O)C7=O)CC5)C4)c(OC)c3)cn(C)c(=O)c2C1 (stereo not shown)
[reply] 10 to 100 nM

[ask] For CNC(=O)N1CCc2c(-c3cc(OC)c(CN4CCC(C(F)(F)CN5CCN(c6ccc7c(c6)C(=O)N(C6CCC(=O)NC6=O)C7=O)CC5)CC4)c(OC)c3)cn(C)c(=O)c2C1 (stereo not shown) , write its IC50.
[reply] < 10 nM

[ask] Name the recorded IC50 of the item CNC(=O)N1CCc2c(-c3cc(OC)c(CN4CC(N5CCN(c6ccc7c(c6)C(=O)N(C6CCC(=O)NC6=O)C7=O)CC5)C4)c(OC)c3)cn(C)c(=O)c2C1 (stereo not shown) in your answer.
[reply] < 10 nM

[ask] State, in one line, measured IC50 of CNC(=O)N1CCc2c(-c3cc(OC)c(CN4CC(S(=O)(=O)NCCCOc5cccc6c5C(=O)N(C5CCC(=O)NC5=O)C6=O)C4)c(OC)c3)cn(C)c(=O)c2C1 (stereo not shown)
[reply] 100 to 1000 nM

[ask] Determine its reported IC50: CNC(=O)N1CCc2c(-c3cc(OC)c(CN4CCN(c5ccn6c(=O)n(C7CCC(=O)NC7=O)nc6c5)CC4)c(OC)c3)cn(C)c(=O)c2C1 (stereo not shown)
[reply] 100 to 1000 nM

[ask] Indicate its recorded IC50; the compound in question is CNC(=O)N1CCc2c(-c3cc(OC)c(CN4CCN(CCN5CCN(c6ccc7c(c6)C(=O)N(C6CCC(=O)NC6=O)C7=O)CC5)CC4)c(OC)c3)cn(C)c(=O)c2C1 (stereo not shown)
[reply] < 10 nM

[ask] Look up and report measured IC50 for this entry: [2H]C1([2H])N(CCC2CCN(c3ccc4c(c3)C(=O)N(C3CCC(=O)NC3=O)C4=O)CC2)C([2H])([2H])C([2H])([2H])N(Cc2c(OC)cc(-c3cn(C)c(=O)c4c3CCN(C(=O)NC)C4)cc2OC)C1([2H])[2H] (stereo not shown)
[reply] < 10 nM

[ask] Tell me measured IC50 for CNC(=O)N1CCc2c(-c3cc(OC)c(CN4CCC(CN5CCC6(CC5)CC(Oc5ccc7c(c5)C(=O)N(C5CCC(=O)NC5=O)C7=O)C6)CC4)c(OC)c3)cn(C)c(=O)c2C1 (stereo not shown) please.
[reply] < 10 nM

====

# measurementTarget: Nanoluciferase-BRD9 fusion protein (3×FLAG-NLuc-BRD9) in SYO-1 cells (Homo sapiens (Human), UniProt Q9H8M2)
# Sequence (Q9H8M2 whole entry, the tested form may be a part): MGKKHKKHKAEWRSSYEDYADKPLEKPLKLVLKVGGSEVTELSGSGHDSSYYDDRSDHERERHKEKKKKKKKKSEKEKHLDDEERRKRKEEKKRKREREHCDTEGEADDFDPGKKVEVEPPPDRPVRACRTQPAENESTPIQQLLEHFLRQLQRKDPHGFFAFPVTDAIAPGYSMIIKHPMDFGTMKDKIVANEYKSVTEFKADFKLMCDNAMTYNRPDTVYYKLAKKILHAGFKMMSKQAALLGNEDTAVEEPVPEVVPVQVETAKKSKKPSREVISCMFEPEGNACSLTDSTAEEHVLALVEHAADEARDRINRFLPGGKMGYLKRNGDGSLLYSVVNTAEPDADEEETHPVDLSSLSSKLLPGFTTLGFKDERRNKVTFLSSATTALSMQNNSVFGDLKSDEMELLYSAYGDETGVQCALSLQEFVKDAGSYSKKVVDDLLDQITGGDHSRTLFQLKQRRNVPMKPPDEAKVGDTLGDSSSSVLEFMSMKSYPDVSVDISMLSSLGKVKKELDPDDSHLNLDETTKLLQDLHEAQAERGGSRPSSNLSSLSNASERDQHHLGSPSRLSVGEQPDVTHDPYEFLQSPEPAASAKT
# procedureSummary: SYO1 BRD9 NanoLuc degradation assay
# Assay type: cell-based
# conditionContext: SYO-1 cells expressing 3×FLAG-NLuc-BRD9, 6 hours incubation, top dose 1 μM
pIC50: −log10 of the molar value.
So I've got a bunch of compounds here, and I need their pIC50 values.

[ask] Report pIC50, nothing else, for this compound: CNC(=O)N1CCc2c(-c3cc(OC)c(CN4CCC(CN5CCN(c6ccc7c(c6)C(=O)N(C6CCC(=O)NC6=O)C7=O)CC5)C4)c(OC)c3)cn(C)c(=O)c2C1 (stereo not drawn) [Compound D169]
[reply] > 8.00

[ask] Return reported pIC50. Input compound: CNC(=O)N1CCc2c(-c3cc(OC)c(CN4CCC5(CC4)CN(CCN4CCN(c6ccc7c(c6)C(=O)N(C6CCC(=O)NC6=O)C7=O)CC4)CCO5)c(OC)c3)cn(C)c(=O)c2C1 (stereo not drawn) [Compound D202]
[reply] 7.00 to 8.00

[ask] Answer with the recorded pIC50 for the compound listed here: CNC(=O)N1CCc2c(-c3cc(OC)c(CC4CCN(CCN5CCN(c6ccc7c(c6)C(=O)N(C6CCC(=O)NC6=O)C7=O)CC5)CC4)c(OC)c3)cn(C)c(=O)c2C1 (stereo not drawn) [Compound D130]
[reply] > 8.00

[ask] Give the reported value of pIC50 for this record: COc1cc(-c2cn(C)c(=O)c3c2CCN(C(=O)NCCCN2CC4(CCN(c5ccc6c(c5)C(=O)N(C5CCC(=O)NC5=O)C6=O)CC4)C2)C3)cc(OC)c1CN(C)C (stereo not drawn) [Compound D238]
[reply] 7.00 to 8.00

[ask] Item COc1cc(-c2cn(C)c(=O)c3c2CCN(C(=O)NCC(F)F)C3)cc(OC)c1CN1CCN(CCC2CCN(c3ccc4c(c3)C(=O)N(C3CCC(=O)NC3=O)C4=O)CC2)CC1 (stereo not drawn) [Compound D46] : provide pIC50
[reply] > 8.00

[ask] Hello, please tell me recorded pIC50 for this one: CNC(=O)N1CCc2c(-c3cc(OC)c(CNc4ccc5c(c4)C(=O)N(C4CCC(=O)NC4=O)C5=O)c(OC)c3)cn(C)c(=O)c2C1 (stereo not drawn) [Compound D111]
[reply] 7.00 to 8.00

[ask] Note pIC50 for the compound shown: COc1cc(-c2cn(C)c(=O)c3c2CCN(C(=O)NCC2CC4(CCN(CCOc5ccc6c(c5)C(=O)N(C5CCC(=O)NC5=O)C6=O)CC4)O2)C3)cc(OC)c1CN(C)C (stereo not drawn) [Compound D213]
[reply] 6.00 to 7.00

[ask] Give me measured pIC50, please, for this compound: CNC(=O)N1CCc2c(-c3cc(F)c(CN4CCC(CCN5CCN(c6ccc7c(c6)C(=O)N(C6CCC(=O)NC6=O)C7=O)CC5)CC4)c(OC)c3)cn(C)c(=O)c2C1 (stereo not drawn) [Compound D91]
[reply] > 8.00

[ask] Look up and state reported pIC50 for [2H]C([2H])([2H])n1cc(-c2cc(OC)c(CN3CCN(CCC4CCN(c5ccc6c(c5)C(=O)N(C5CCC(=O)NC5=O)C6=O)CC4)CC3)c(OC)c2)c2c(c1=O)CN(C(=O)NC)CC2 (stereo not drawn) [Compound D45]
[reply] > 8.00

[ask] Answer with the recorded pIC50 of COc1cc(-c2cn(C)c(=O)c3c2CCN(C(=O)NCCCN2CCC4CCN(c5ccc6c(c5)C(=O)N(C5CCC(=O)NC5=O)C6=O)C4C2)C3)cc(OC)c1CN(C)C (stereo not drawn) [Compound D234] only.
[reply] 7.00 to 8.00

[ask] Specify reported pIC50 for the compound shown: COc1cc(-c2cn(C)c(=O)c3c2CCN(C(=O)NCCN2CCC(C4CCN(c5ccc6c(c5)C(=O)N(C5CCC(=O)NC5=O)C6=O)CC4)C2)C3)cc(OC)c1CN(C)C (stereo not drawn) [Compound D205]
[reply] 7.00 to 8.00

[ask] Return reported pIC50. Input compound: CNC(=O)N1CCc2c(-c3cc(OC)c(CN4CC5(CC(N6Cc7cc8c(cc7C6)C(=O)N(C6CCC(=O)NC6=O)C8=O)C5)C4)c(OC)c3)cn(C)c(=O)c2C1 (stereo not drawn) [Compound D177]
[reply] 7.00 to 8.00

[ask] Give pIC50 for the following compound: CNC(=O)N1CCc2c(-c3cc(OC)c(CN4CCC(CCN5CCN(c6ccc(-c7cnn(C8CCC(=O)NC8=O)c7)cc6)CC5)CC4)c(OC)c3)cn(C)c(=O)c2C1 (stereo not drawn) [Compound D76]
[reply] > 8.00

[ask] Complete the entry with pIC50 for CNC(=O)N1CCc2c(-c3cc(OC)c(CN(C)C45CC(C(=O)NCCCCCOc6ccc7c(c6)C(=O)N(C6CCC(=O)NC6=O)C7=O)(C4)C5)c(OC)c3)cn(C)c(=O)c2C1 (stereo not drawn) [Compound D276]
[reply] 7.00 to 8.00

[ask] State, in one line, measured pIC50 of CNC(=O)N1CCc2c(-c3cc(OC)c(CN4CC(CN5CCC6(CC5)CN(c5ccc7c(c5)C(=O)N(C5CCC(=O)NC5=O)C7=O)C6)C4)c(OC)c3)cn(C)c(=O)c2C1 (stereo not drawn) [Compound D109]
[reply] > 8.00

[ask] Dear colleague, please send me the reported pIC50 for CNC(=O)N1CCc2c(-c3cc(OC)c(CN4CCN(c5cnn(C6CCC(=O)NC6=O)c5)CC4)c(OC)c3)cn(C)c(=O)c2C1 (stereo not drawn) [Compound D60] when you can.
[reply] 6.00 to 7.00

[ask] Output pIC50 of CNC(=O)N1CCc2c(-c3cc(OC)c(CN4CCC(C(C)N5CCC6(CC5)CC(Oc5ccc7c(c5)C(=O)N(C5CCC(=O)NC5=O)C7=O)C6)CC4)c(OC)c3)cn(C)c(=O)c2C1 (stereo not drawn) [Compound D128]
[reply] > 8.00

[ask] Give the measured pIC50 for CNC(=O)N1CCc2c(-c3cc(OC)c(CN4CCN(CC5CCN(c6ccc7c(c6)CN(C6CCC(=O)NC6=O)C7=O)CC5)CC4)c(OC)c3)cn(C)c(=O)c2C1 (stereo not drawn) [Compound D39]
[reply] > 8.00

[ask] // fetch pIC50 given entry COc1cc(-c2cn(C)c(=O)c3c2COC3)cc(OC)c1CN1CC(CN2CCC3(CC2)CN(c2ccc4c(c2)C(=O)N(C2CCC(=O)NC2=O)C4)C3)C1 (stereo not drawn) [Compound D302]
[reply] > 8.00

[ask] Return reported pIC50. Input compound: COc1cc(-c2cn(C)c(=O)c3c2CCN(C(=O)NCCN2CCC(OC4CCN(c5ccc6c(c5)C(=O)N(C5CCC(=O)NC5=O)C6=O)CC4)C2)C3)cc(OC)c1CN(C)C (stereo not drawn) [Compound D204]
[reply] 6.00 to 7.00

[ask] Supply measured pIC50 of CNC(=O)N1CCc2c(-c3cc(OC)c(CN(C)CCOCCN4CCN(c5ccc6c(c5)C(=O)N(C5CCC(=O)NC5=O)C6=O)CC4)c(OC)c3)cn(C)c(=O)c2C1 (stereo not drawn) [Compound D284] in your reply.
[reply] 7.00 to 8.00
